target: single component neutral pork zinc insulin (Sus scrofa, UniProt P01315); construct: single component, neutral, pork, zinc-insulin (U.500 regular Iletin II., Eli Lilly & Company); purchased Eli Lilly & Company U.500 regular Iletin II; experiment: Controlled shaking of zinc insulin solutions in test tubes, optical density at 600 nm; assay type: physicochemical; conditions: zinc insulin 50 U/ml, pH 3.3-3.5, shaken 16 days at 37° C., OD at 600 nm
Sequence (P01315 25-54 limits assumed): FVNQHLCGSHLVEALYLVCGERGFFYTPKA
Sequence (P01315 88-108 limits assumed): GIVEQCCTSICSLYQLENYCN
Below is a list of entries, each paired with its recorded Optical Density ± 1 × SE value.
Output spec: single numeric token, no unit.

Worked examples follow.
entry_smiles: N[C@@H](CS)C(=O)O
Optical Density ± 1 × SE: 0.39

entry_smiles: C[C@H](N)C(=O)O
Optical Density ± 1 × SE: 0.41

entry_smiles: NCC(=O)O
Optical Density ± 1 × SE: 0.28

entry_smiles: N[C@@H](CCC(=O)O)C(=O)O
Optical Density ± 1 × SE: 0.123

entry_smiles: N[C@@H](CC(=O)O)C(=O)O
Optical Density ± 1 × SE: 0.084

// next entry
Entry under test: "NCCCC[C@H](N)C(=O)O" . Its Optical Density ± 1 × SE was 0.35

====

Target: single component neutral pork zinc insulin (Sus scrofa)
Construct: single component, neutral, pork, zinc-insulin (U.500 regular Iletin II., Eli Lilly & Company); purchased Eli Lilly & Company U.500 regular Iletin II
Assay: Controlled shaking of zinc insulin solutions in test tubes, optical density at 600 nm
Format: physicochemical
Settings: zinc insulin 50 U/ml, pH 7.4, shaken 16 days at 37° C., OD at 600 nm; higher OD = greater aggregation
Method: In vitro testing of single component neutral pork zinc insulin was undertaken with a number of added agents. Solutions at about neutral pH and at acid pH were tested. In addition, some testing was also undertaken with Na insulin. The tests were conducted using plastic tybes (5 ml test tubes, Sarstedt, sealed by plastic caps covered with paraffin) each containing 2 ml of the insulin solutions noted below. […]
quantity: Optical Density ± 1 × SE
// print number alone

Please review the entries below; each comes with its answer.
entry_smiles: N[C@@H](Cc1c[nH]cn1)C(=O)O
Optical Density ± 1 × SE: 0.245
//
entry_smiles: N[C@@H](CCC(=O)O)C(=O)O
Optical Density ± 1 × SE: 0.717

GET /value?item= "CC(C)[C@H](N)C(=O)O" &field=Optical Density ± 1 × SE returns 0.64

Record "N[C@@H](CS)C(=O)O" . Reported Optical Density ± 1 × SE: 0.34

====

biological target: single component neutral pork zinc insulin (Sus scrofa, UniProt P01315); construct: single component, neutral, pork, zinc-insulin (U.500 regular Iletin II., Eli Lilly & Company); purchased Eli Lilly & Company U.500 regular Iletin II; assay: Controlled shaking of zinc insulin solutions in test tubes, optical density at 600 nm; assay type: physicochemical; details: zinc insulin 50 U/ml, pH 7.4, shaken 16 days at 37° C., OD at 600 nm; higher OD = greater aggregation
List of Optical Density ± 1 × SE values.
Number only, please.

entry_smiles: C[C@H](N)C(=O)O
Optical Density ± 1 × SE: 0.84

entry_smiles: NC(=O)CC[C@H](N)C(=O)O
Optical Density ± 1 × SE: 0.68

entry_smiles: NCCCC[C@H](N)C(=O)O
Optical Density ± 1 × SE: 0.25

entry_smiles: NCC(=O)O
Optical Density ± 1 × SE: 0.66

Looking up "N=C(N)NCCC[C@H](N)C(=O)O" , I found its Optical Density ± 1 × SE recorded as 0.074

Optical Density ± 1 × SE for "N[C@@H](Cc1c[nH]c2ccccc12)C(=O)O" is 0.585

Lookup result for "CC(C)C[C@H](N)C(=O)O" ; measured Optical Density ± 1 × SE: 0.695

Record summary for "N[C@@H](CO)C(=O)O" : reported Optical Density ± 1 × SE = 0.89

So, "CSCC[C@H](N)C(=O)O" ? Its Optical Density ± 1 × SE was 0.74

Briefly, Optical Density ± 1 × SE measured for "NC(=O)C[C@H](N)C(=O)O" : 0.87

====

molecular target: single component neutral pork zinc insulin (Sus scrofa, UniProt P01315); construct: single component, neutral, pork, zinc-insulin (U.500 regular Iletin II., Eli Lilly & Company); purchased Eli Lilly & Company U.500 regular Iletin II; test: Controlled shaking of zinc insulin solutions in test tubes, optical density at 600 nm; assay type: physicochemical; details: zinc insulin 50 U/ml, pH 7.4, shaken 16 days at 37° C., OD at 600 nm; higher OD = greater aggregation
quantity: Optical Density ± 1 × SE
Number only, no unit.

Some solved entries appear below for comparison.
entry_smiles: O=C(O)[C@@H]1CCCN1
Optical Density ± 1 × SE: 0.665
--
entry_smiles: C[C@@H](O)[C@H](N)C(=O)O
Optical Density ± 1 × SE: 0.76

Read the next record carefully.
The compound listed as "N[C@@H](CC(=O)O)C(=O)O" shows Optical Density ± 1 × SE equal to 0.51
